Reported self-cleavage is given for each of the following variants.
B1: Hairpin Ribozyme (parent)
chain: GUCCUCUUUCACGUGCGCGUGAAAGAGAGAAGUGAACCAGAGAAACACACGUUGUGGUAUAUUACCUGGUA

Variants of: B1
Assay Info: self-cleavage, relative activity (ratio to wild type); higher = more cleavage; co-transcriptional
Lab note: jot down the number only; don't add units.

Q: What value of self-cleavage has been recorded for this entry: G19C A59C
Ans: 0.225

Q: Return reported self-cleavage; argument: U9C C18A
Ans: 0.84

Q: self-cleavage for A30C C48U ?
Ans: 0.17

Q: # lookup: self-cleavage of G34A A71C
Ans: 1.6

Q: Which value of self-cleavage has been reported for A39C U62A in the records?
Ans: 0.159

Q: Data request, read-out self-cleavage, for A35G U53A
Ans: 1.25

Q: Consider the variant shown here: U60A U62C What is its recorded self-cleavage?
Ans: 0.373

Sourced from the RNAGym collection of RNA variant scans (doi:10.7554/elife.80360)
